Numbers sourced from patent US20250002473A1.

# target or test system: BaF3_ASV (EGFR_A776inASV) (Homo sapiens, UniProt P00533, DUP767-769)
# Construct: expressed in transfected cells; host or cells: Ba/F3 (engineered)
# Sequence (P00533 with tags, fused parts or gaps DUP767-769): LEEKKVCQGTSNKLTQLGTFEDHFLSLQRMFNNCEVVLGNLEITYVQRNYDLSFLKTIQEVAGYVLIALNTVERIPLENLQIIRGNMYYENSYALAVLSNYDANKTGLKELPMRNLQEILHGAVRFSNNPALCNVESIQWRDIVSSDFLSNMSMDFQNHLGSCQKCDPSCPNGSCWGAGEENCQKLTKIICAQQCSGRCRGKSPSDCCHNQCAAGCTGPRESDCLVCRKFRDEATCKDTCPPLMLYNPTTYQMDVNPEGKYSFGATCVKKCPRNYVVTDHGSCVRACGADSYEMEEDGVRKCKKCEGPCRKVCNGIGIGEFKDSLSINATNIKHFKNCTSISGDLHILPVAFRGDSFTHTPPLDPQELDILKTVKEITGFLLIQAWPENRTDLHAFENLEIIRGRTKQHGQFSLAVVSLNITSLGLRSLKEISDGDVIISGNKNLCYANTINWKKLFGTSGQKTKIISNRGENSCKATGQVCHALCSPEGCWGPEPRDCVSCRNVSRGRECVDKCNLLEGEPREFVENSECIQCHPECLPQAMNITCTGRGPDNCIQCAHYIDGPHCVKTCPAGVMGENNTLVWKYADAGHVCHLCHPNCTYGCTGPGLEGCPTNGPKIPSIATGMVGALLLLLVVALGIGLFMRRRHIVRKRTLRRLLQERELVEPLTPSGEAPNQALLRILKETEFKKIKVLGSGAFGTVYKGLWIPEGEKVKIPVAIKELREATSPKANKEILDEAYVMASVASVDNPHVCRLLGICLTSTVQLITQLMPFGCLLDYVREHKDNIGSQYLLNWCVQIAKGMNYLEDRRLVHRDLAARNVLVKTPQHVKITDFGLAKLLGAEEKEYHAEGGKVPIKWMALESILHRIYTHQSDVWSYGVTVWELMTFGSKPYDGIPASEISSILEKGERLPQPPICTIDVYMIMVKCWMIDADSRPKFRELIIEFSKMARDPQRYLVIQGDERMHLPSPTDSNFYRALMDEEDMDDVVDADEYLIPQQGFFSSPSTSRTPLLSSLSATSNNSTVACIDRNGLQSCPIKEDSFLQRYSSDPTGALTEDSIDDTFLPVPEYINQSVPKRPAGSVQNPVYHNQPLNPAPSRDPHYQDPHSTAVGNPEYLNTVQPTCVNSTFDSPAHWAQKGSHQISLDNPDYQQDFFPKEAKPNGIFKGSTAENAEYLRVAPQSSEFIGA
# assay overview: EGFR degradation assay (western blot), BaF3_ASV cells
# Format: cell-based
# assay conditions: BaF3_ASV cells, compounds 24 h, western blot; read-out: BaF3_ASV DC50

{"compound": "CCc1cc(Nc2ncc(Br)c(Nc3ccc4nccnc4c3NS(C)(=O)=O)n2)c(OC)cc1N1CCC2(CCN(CC3CCN(c4ccc5c(c4)CN(C4CCC(=O)NC4=O)C5=O)CC3)CC2)CC1 (centres unmarked)", "DC50": "102 nM"}
{"compound": "CCc1cc(Nc2ncc(Br)c(Nc3ccc4nccnc4c3NS(C)(=O)=O)n2)c(OC)cc1N1CCC(N2CCC(C(=O)N3CCN(c4ccc5c(c4)CN([C@H]4CCC(=O)NC4=O)C5=O)CC3)CC2)CC1", "DC50": "335 nM"}
{"compound": "CCc1cc(Nc2ncc(Br)c(Nc3ccc4nccnc4c3NS(C)(=O)=O)n2)c(OC)cc1N1CCC(N2CCN(CCNc3cccc4c3CN(C3CCC(=O)NC3=O)C4=O)CC2)CC1 (centres unmarked)", "DC50": "53.7 nM"}
{"compound": "CCc1cc(Nc2ncc(Br)c(Nc3ccc4nccnc4c3NS(C)(=O)=O)n2)c(OC)cc1N1CCC(N2CCC3(CCN(c4ccc5c(c4)CN(C4CCC(=O)NC4=O)C5=O)CC3)CC2)CC1 (centres unmarked)", "DC50": "> 1000 nM"}
{"compound": "COc1cc(N2CCC(N3CCN(CC4CCN(c5ccc6c(c5)CN(C5CCC(=O)NC5=O)C6=O)CC4)CC3)CC2)c(-c2cnn(C)c2)cc1Nc1ncc(Br)c(Nc2ccc3nccnc3c2NS(C)(=O)=O)n1 (centres unmarked)", "DC50": "26 nM"}
{"compound": "CCc1cc(Nc2ncc(Br)c(Nc3ccc4nccnc4c3NS(C)(=O)=O)n2)c(OC)cc1N1CCC(N2CCN(CC3(CN4CCN(c5ccc6c(c5)CN([C@H]5CCC(=O)NC5=O)C6=O)CC4)CC3)CC2)CC1", "DC50": "> 1000 nM"}
{"compound": "CCc1cc(Nc2ncc(Br)c(Nc3ccc4nccnc4c3NS(C)(=O)=O)n2)c(OC)cc1N1CCC(N2CCC(CN3CCN(c4ccc5c(c4)CN([C@H]4CCC(=O)NC4=O)C5=O)CC3)CC2)CC1", "DC50": "86.5 nM"}
{"compound": "CCc1cc(Nc2ncc(Br)c(Nc3ccc4nccnc4c3NS(C)(=O)=O)n2)c(OC)cc1N1CCC(N2CCN(C3CCN(c4ccc5c(c4)CN(C4CCC(=O)NC4=O)C5=O)CC3)CC2)CC1 (centres unmarked)", "DC50": "19.7 nM"}
{"compound": "CCn1c(=O)n(C2CCC(=O)NC2=O)c2cccc(CCN3CCN(C4CCN(c5cc(OC)c(Nc6ncc(Br)c(Nc7ccc8nccnc8c7NS(C)(=O)=O)n6)cc5-c5cnn(C)c5)CC4)CC3)c21 (centres unmarked)", "DC50": "93.6 nM"}
{"compound": "CCc1cc(Nc2ncc(Br)c(Nc3ccc4nccnc4c3NS(C)(=O)=O)n2)c(OC)cc1N1CCC(N2CCN(CCC3CCN(c4cc(F)c(C5CCC(=O)NC5=O)c(F)c4)CC3)CC2)CC1 (centres unmarked)", "DC50": "135 nM"}
{"compound": "CCc1cc(Nc2ncc(Br)c(Nc3ccc4nccnc4c3NS(C)(=O)=O)n2)c(OC)cc1N1CCN(CC2(CN3CCN(c4ccc5c(c4)CN([C@H]4CCC(=O)NC4=O)C5=O)CC3)CC2)CC1", "DC50": "> 1000 nM"}
